Tested on: Carnitine palmitoyltransferase I (CPT I)
Assay: Assay of carnitine palmitoyl transferase-I (CPT-I), Method-I
Assay type: biochemical
Settings: inhibitor 5 mM, hamster flank organ hair follicle fraction
Endpoint: pmol product /mg protein (CPT I activity)

Compound	Result Value
CCCCNC(=O)NS(=O)(=O)c1ccc(C)cc1 [tolbutamide]	0.07 pmol product /mg protein
CC(C)(COP(=O)(O)OP(=O)(O)OC[C@H]1O[C@@H](n2cnc3c(N)ncnc32)[C@H](O)[C@@H]1OP(=O)(O)O)[C@@H](O)C(=O)NCCC(=O)NCCSC(=O)CC(=O)O	0.59 pmol product /mg protein
COc1ccc(Cl)cc1C(=O)NCCc1ccc(S(=O)(=O)NC(=O)NC2CCCCC2)cc1 [glynbenclamide]	0.00 pmol product /mg protein
C1CCC(C(CC2CCCCN2)C2CCCCC2)CC1 (centres unmarked)	0.10 pmol product /mg protein
CCCCCCCCCCCCCCC(Br)C(=O)O (centres unmarked)	0.07 pmol product /mg protein
